# System: RXF 393 renal
# testName: NCI-60 one-dose screen, 48 h (100 = growth as untreated, 0 = no growth, -100 = all killed)
# testConditions: 10 µM unless noted
The panel holds about 83,000 compounds, 20% with a hit somewhere; the sample as a whole holds those more often.

{"compound": "COc1cc2ncn3c(=O)c4c5c(sc4nc3c2cc1OC)CCCCC5", "uom": "%", "growth": 105}
{"compound": "COc1cc(NC(C)CCCN2C(=O)c3ccccc3C2=O)c2ncccc2c1OC (stereo not given)", "uom": "%", "growth": 95}
{"compound": "O=C(Nc1ccc(-n2cc(-c3ccncc3)c(-c3ccc(O)c(Cl)c3)n2)cc1)c1cc(Cl)cc(Cl)c1", "uom": "%", "growth": -80.2}
{"compound": "C/C(=N\\N=C1/SCC(=O)N1c1ccccc1)c1ccco1", "uom": "%", "growth": 112}
{"compound": "COc1cccc(-c2nc3sccn3c2-c2ccnc(NCCNC(=O)Nc3cccc(C(F)(F)F)c3)n2)c1", "uom": "%", "growth": 6.3}

====

# System: CCRF-CEM leukemia
# testName: NCI-60 one-dose screen, 48 h
# testConditions: 10 µM unless noted
This is part of a sample that, as a whole, favours compounds with a hit. Of some 83,000 tested, about 20% had one in any assay. Activity calls are given as the source filed them. Rule for the calls: active = growth percent below 10; inactive = the rest.
Possible outcomes: yes (1) (active), no (0) (inactive)

{"molecule": "O=C(Nc1ccc(-n2ccc3c(NC(=O)c4ccccc4)ncnc32)cc1)c1ccc(Cl)c(C(F)(F)F)c1", "answerLabel": "yes (1)"}
{"molecule": "Nc1nc(Cl)c2c(C(F)(F)F)cn(CC3CCNCC3)c2n1", "answerLabel": "no (0)"}
{"molecule": "NS(=O)(=O)c1ccc(Nc2nc(O)c(/C=C3\\C=Nc4ccccc43)s2)cc1", "answerLabel": "no (0)"}
{"molecule": "S=c1n(CNc2ccc(Cl)nn2)nc(-c2cc(Cl)cc(Cl)c2Cl)n1/N=C/c1ccc(Cl)cc1", "answerLabel": "yes (1)"}
{"molecule": "C/C(=N/NC(=O)Cn1c2ccccc2c2ccncc21)c1cccs1", "answerLabel": "no (0)"}
{"molecule": "Nc1nccc2c1ccn2-c1ccc(NC(=O)c2ccc(N3CCOCC3)c(C(F)(F)F)c2)cc1", "answerLabel": "no (0)"}
{"molecule": "Cc1nccc2c3ccc(OCc4cn(-c5ccc(Br)cc5)nn4)cc3n(CCCc3ccccc3)c12", "answerLabel": "no (0)"}
{"molecule": "OC[C@@H](O)C(O[C@@H]1O[C@H](CO)[C@H](O)[C@H](O)[C@H]1O)[C@H](O)[C@@H](O)CO (some centres undefined)", "answerLabel": "no (0)"}
{"molecule": "CCOC(=O)CSc1nnc(-c2cc3c([nH]c4ccccc43)c(-c3cccc(O)c3)n2)n1-c1ccc(C)cc1", "answerLabel": "no (0)"}

====

# System: U251 CNS
# testName: NCI-60 one-dose screen, 48 h (100 = growth as untreated, 0 = no growth, -100 = all killed)
# testConditions: 10 µM unless noted
Compounds without any hit were thinned out: in the full panel of roughly 83,000, 20% have a hit.
Parameter growth: see the listing below.

{"chemicalSmiles": "O=C(O)c1cn(C2CC2)c2cc(N3CCN(C(=O)CSc4nc(NS(=O)(=O)c5ccccc5)cc(=O)[nH]4)CC3)c(F)cc2c1=O", "targetUnderTest": "U251 CNS", "growth (%)": 97.7}
{"chemicalSmiles": "Nc1nc(=S)ss1", "targetUnderTest": "U251 CNS", "growth (%)": 107}
{"chemicalSmiles": "COc1cc(-c2nc(N)n(CC(=O)Nc3ccc(/C(C)=N\\O)cc3)n2)cc(OC)c1OC", "targetUnderTest": "U251 CNS", "growth (%)": 85.8}
{"chemicalSmiles": "O=c1c2ccccc2sc2c(NCCCNCCO)nc3ccccc3c12", "targetUnderTest": "U251 CNS", "growth (%)": 21.3}
{"chemicalSmiles": "CCCCOc1nc2ccc(Cl)cc2cc1/C=C/C(=O)/C=C/c1ccc(Cl)cc1", "targetUnderTest": "U251 CNS", "growth (%)": 35.3}

====

# Test system: KM12 colon
# testName: NCI-60 one-dose screen, 48 h
# testConditions: 10 µM unless noted
Compounds without any hit were thinned out: in the full panel of roughly 83,000, 20% have a hit. Activity calls are given as the source filed them. The calls were made as follows: active = growth percent below 10; inactive = the rest.
Outcome codes: Y for active, N for inactive

{"chemicalSmiles": "Cc1nc(N)nc(SCc2ccccc2)c1Br", "answerLabel": "N"}
{"chemicalSmiles": "C=C1C(=O)O[C@H]2[C@H]1CC/C(COC(=O)c1cccc3ccccc13)=C\\CC[C@@]1(C)O[C@@H]21", "answerLabel": "N"}
{"chemicalSmiles": "C=CCn1c(SCC(=O)Nc2ccc(C(=O)/C=C/c3cc(OC)c(OC)c(OC)c3)cc2)nnc1-c1ccc(OC)cc1", "answerLabel": "Y"}

====

Measured growth, listed per entry for reference.
# Tested on: DU-145 prostate
# testName: NCI-60 one-dose screen, 48 h (100 = growth as untreated, 0 = no growth, -100 = all killed)
# testConditions: 10 µM unless noted
This is part of a sample that, as a whole, favours compounds with a hit. Of some 83,000 tested, about 20% had one in any assay.

{"compound": "CC(C)C1(C(C)C)NC(=O)NC1=O", "uom": "%", "growth": 93.7}
{"compound": "CN(C)CCCOc1c(Br)cc(/C=C/C(=O)N(C)CCc2cc(Br)c(OCCCN(C)C)c(Br)c2)cc1Br", "uom": "%", "growth": 40.5}
{"compound": "CCCCOc1nc2ccc(Cl)cc2cc1/C=C/C(=O)/C=C/c1ccc(OC)cc1", "uom": "%", "growth": 93.8}
{"compound": "NCC(=O)NS(=O)(=O)OC[C@H]1O[C@@H](n2cnc3c(N)ncnc32)[C@H](O)[C@@H]1O", "uom": "%", "growth": -31.7}
{"compound": "Cc1cc(NC(=O)c2cccc(C(F)(F)F)c2)ccc1-n1ccc2c(NC(=O)c3ccccc3)nccc21", "uom": "%", "growth": 112}
{"compound": "COc1ccc(-c2c(C#N)cnc(N)c2-c2nc3cc(C)c(C)cc3[nH]2)cc1", "uom": "%", "growth": 37.4}
{"compound": "c1ccc(OCC[P+](c2ccccc2)(c2ccccc2)c2ccccc2)cc1", "uom": "%", "growth": 36.4}
{"compound": "CCOC(=O)c1noc2c1CCc1c-2cn(Cc2ccc(OC)cc2)c1-c1cc(OC)c(OC)c(OC)c1", "uom": "%", "growth": 24.5}
{"compound": "COc1ccc(Cl)cc1NC(=O)c1cc2c([nH]1)-c1nc(NC(=O)C(C)(C)C)sc1CC2", "uom": "%", "growth": 59.9}
{"compound": "COc1ccc(/C=C2\\CS(=O)(=O)C/C(=C\\c3ccc(OC)cc3)C2=O)cc1", "uom": "%", "growth": -44.2}
{"compound": "C=CC(=O)NC(=O)Nc1ccccc1Cl", "uom": "%", "growth": 48.4}
{"compound": "COc1cc(/C=C/C(=O)c2ccc(Oc3ncnc4ccccc34)cc2)cc(OC)c1OC", "uom": "%", "growth": 21.4}
{"compound": "Nc1nc2ccc(CNc3ccc(C(=O)NC(CC(=O)O)C(=O)O)cc3)cc2c(=O)[nH]1 (stereo not given)", "uom": "%", "growth": 44.9}
{"compound": "N#CC(C#N)=C(C#N)c1c[nH]c2ccccc12", "uom": "%", "growth": 88}
{"compound": "COc1cc2c(cc1OC)-c1c(oc3c4c(ccc3c1=O)OC(C)(C)C=C4)CO2", "uom": "%", "growth": 90.9}
{"compound": "O=c1[nH]ccc2nc(N3CCC(O)CC3)nc(Nc3cccc(C(F)(F)F)c3)c12", "uom": "%", "growth": 72}
{"compound": "COc1ccc(C(=O)NC(=O)Nc2ccc3c(c2)NC(=O)/C3=C\\c2[nH]c(C)c(C(=O)O)c2C)cc1", "uom": "%", "growth": 71.1}
{"compound": "CC1=C[S+](c2ccccc2)c2cccc3cc4ccccc4c1c23 (stereo not given)", "uom": "%", "growth": -10.8}
{"compound": "O=S(=O)(CCN1CCOCC1)Nc1cc(-c2ccc3ncnc(Nc4ccc(F)c(Cl)c4)c3c2)cnc1Cl", "uom": "%", "growth": 15.6}
{"compound": "Cc1ccc(/C=C2/C(=O)Nc3cc(Cl)c(-c4csc(N)n4)cc32)cc1", "uom": "%", "growth": 87.5}

====

Measured growth, listed per entry for reference.
# Tested on: MDA-MB-231 breast
# testName: NCI-60 one-dose screen, 48 h (100 = growth as untreated, 0 = no growth, -100 = all killed)
# testConditions: 10 µM unless noted
# Experimental: Cells are grown in 96 well plates and exposed to the test compound for 48 hours. Compounds are tested at a single concentration, which is 10^-5 M for most compounds. The reported endpoint is percent growth (GI% or GIPRCNT), where numbers from 0 - 100% represent growth inhibition, and numbers from -100% - 0 represent cell death. For example, a value of 40 represents 60% growth inhibition. A value of 0 means no net growth occurred over the course of the experiment. […]
Compounds without any hit were thinned out: in the full panel of roughly 83,000, 20% have a hit.

{"compound": "O=C(NCCNc1nccc(-c2c(-c3cccc(O)c3)nc3sccn23)n1)c1ccccc1", "growth, %": 80}
{"compound": "O=C(O)c1ccc2nc(-c3ccc(OCCCCCOc4ccc(-c5nc6ccc(C(=O)O)cc6[nH]5)cc4)cc3)[nH]c2c1", "growth, %": 105}
{"compound": "CCCCNC(=O)Oc1ccc(/C(=C(/CC)Cc2ccccc2)c2ccc(OCCCN(C)C)cc2)cc1", "growth, %": 78.9}
{"compound": "COc1ccc(C(=O)NC(=O)Nc2ccc3c(c2)NC(=O)/C3=C\\c2[nH]c(C)c(C(=O)O)c2C)c(F)c1", "growth, %": 63.5}
{"compound": "COc1ccccc1NC(=O)COc1ccc(/C=C2/Oc3cc4occc4c(OC)c3C2=O)cc1OC", "growth, %": 99.8}
{"compound": "S=C=NP1(N=C=S)=NP(N=C=S)(N=C=S)=NP(N=C=S)(N=C=S)=NP(N=C=S)(N=C=S)=N1 (centres undefined)", "growth, %": 105}
{"compound": "CCCc1nn2c(CCC(=O)c3nc4ccc([N+](=O)[O-])cc4[nH]3)nnc2s1", "growth, %": 95.9}
{"compound": "CCN(CC)CCC(C(=O)O)(c1ccccc1)c1ccccc1", "growth, %": 99.4}
{"compound": "Nc1nc(Cl)c2c(C(F)(F)F)cn(CC3CCNCC3)c2n1", "growth, %": 54.2}
